Values compiled from ChEMBL document CHEMBL4354883.

# TEST: Half life in human plasma at 25 uM by HPLC analysis
# Type: ADME, cell-free
half-life at 25 µM overview

Consider the reported half-life at 25 µM for these compounds:
CCc1c2c(nc3ccc(OC(=O)N4CCC(NC(=O)c5noc(-c6cc(C(C)C)c(O)cc6O)c5-c5ccc(CN6CCOCC6)cc5)CC4)cc13)-c1cc3c(c(=O)n1C2)COC(=O)[C@]3(O)CC = > 24 h
CCc1c2c(nc3ccc(O)cc13)-c1cc3c(c(=O)n1C2)COC(=O)[C@@]3(CC)OC(=O)CCNC(=O)CNc1cc(-n2nc(C(F)(F)F)c3c2CC(C)(C)CC3=O)ccc1C(N)=O = > 24 h
CCc1c2c(nc3ccc(O)cc13)-c1cc3c(c(=O)n1C2)COC(=O)[C@@]3(CC)OC(=O)CNC(=O)c1noc(-c2cc(C(C)C)c(O)cc2O)c1-c1ccc(CN2CCOCC2)cc1 = 13 h
CCc1c2c(nc3ccc(OC(=O)N4CCC(NC(=O)CNc5cc(-n6nc(C(F)(F)F)c7c6CC(C)(C)CC7=O)ccc5C(N)=O)CC4)cc13)-c1cc3c(c(=O)n1C2)COC(=O)[C@]3(O)CC = > 24 h
CCc1c2c(nc3ccc(O)cc13)-c1cc3c(c(=O)n1C2)COC(=O)[C@@]3(CC)OC(=O)CNC(=O)CNc1cc(-n2nc(C(F)(F)F)c3c2CC(C)(C)CC3=O)ccc1C(N)=O = 13 h

Next compound, please.
Input line: What value of measured half-life at 25 µM is listed for `CCc1c2c(nc3ccc(O)cc13)-c1cc3c(c(=O)n1C2)COC(=O)[C@@]3(CC)OC(=O)CCNC(=O)c1noc(-c2cc(C(C)C)c(O)cc2O)c1-c1ccc(CN2CCOCC2)cc1` ?
Output line: > 24 h

###

# Test system: A549
# TEST: Antiproliferative activity against human A549 cells assessed as reduction in cell viability after 72 hrs by SRB assay
# Assay type: functional, cell-based
# MEASUREMENT_CONTEXT: A549, 72 h
ASSAY_READOUT: pIC50
Just so you know, pIC50 here is -log10 of the concentration in molar units; reply with that number alone.

Look over these answered cases.
CCc1c2c(nc3ccc(O)cc13)-c1cc3c(c(=O)n1C2)COC(=O)[C@]3(O)CC [7-ETHYL-10-HYDROXYCAMPTOTHECIN] = 7.96
CCc1c2c(nc3ccc(OC(=O)N4CCC(NC(=O)c5noc(-c6cc(C(C)C)c(O)cc6O)c5-c5ccc(CN6CCOCC6)cc5)CC4)cc13)-c1cc3c(c(=O)n1C2)COC(=O)[C@]3(O)CC = 5.95
CCc1c2c(nc3ccc(OC(=O)N4CCC(N5CCCCC5)CC4)cc13)-c1cc3c(c(=O)n1C2)COC(=O)[C@]3(O)CC = 5.81
CCc1c2c(nc3ccc(O)cc13)-c1cc3c(c(=O)n1C2)COC(=O)[C@@]3(CC)OC(=O)CNC(=O)c1noc(-c2cc(C(C)C)c(O)cc2O)c1-c1ccc(CN2CCOCC2)cc1 = 7.25
CCNC(=O)c1noc(-c2cc(C(C)C)c(O)cc2O)c1-c1ccc(CN2CCOCC2)cc1 = 7.41

Input line: Using the record for `CCc1c2c(nc3ccc(O)cc13)-c1cc3c(c(=O)n1C2)COC(=O)[C@@]3(CC)OC(=O)CCNC(=O)c1noc(-c2cc(C(C)C)c(O)cc2O)c1-c1ccc(CN2CCOCC2)cc1` , report its pIC50.
Output line: 6.49

###

# TEST: Half life in mouse plasma at 25 uM by HPLC analysis
# Type: ADME, cell-free
ASSAY_READOUT: half-life at 25 µM

These recorded examples may help you get a feel for the data.
CCc1c2c(nc3ccc(O)cc13)-c1cc3c(c(=O)n1C2)COC(=O)[C@@]3(CC)OC(=O)CNC(=O)CNc1cc(-n2nc(C(F)(F)F)c3c2CC(C)(C)CC3=O)ccc1C(N)=O = 600 min
CCc1c2c(nc3ccc(O)cc13)-c1cc3c(c(=O)n1C2)COC(=O)[C@@]3(CC)OC(=O)CCNC(=O)c1noc(-c2cc(C(C)C)c(O)cc2O)c1-c1ccc(CN2CCOCC2)cc1 = 1020 min
CCc1c2c(nc3ccc(OC(=O)N4CCC(NC(=O)CNc5cc(-n6nc(C(F)(F)F)c7c6CC(C)(C)CC7=O)ccc5C(N)=O)CC4)cc13)-c1cc3c(c(=O)n1C2)COC(=O)[C@]3(O)CC = > 1440 min
CCc1c2c(nc3ccc(O)cc13)-c1cc3c(c(=O)n1C2)COC(=O)[C@@]3(CC)OC(=O)CCNC(=O)CNc1cc(-n2nc(C(F)(F)F)c3c2CC(C)(C)CC3=O)ccc1C(N)=O = 1020 min
CCc1c2c(nc3ccc(OC(=O)N4CCC(NC(=O)c5noc(-c6cc(C(C)C)c(O)cc6O)c5-c5ccc(CN6CCOCC6)cc5)CC4)cc13)-c1cc3c(c(=O)n1C2)COC(=O)[C@]3(O)CC = > 1440 min

Next:
Input line: So what's the measured half-life at 25 µM for this one? `CCc1c2c(nc3ccc(O)cc13)-c1cc3c(c(=O)n1C2)COC(=O)[C@@]3(CC)OC(=O)CNC(=O)c1noc(-c2cc(C(C)C)c(O)cc2O)c1-c1ccc(CN2CCOCC2)cc1`
Output line: 630 min

###

# TEST: Drug uptake in human A549 cells assessed as endocytosis-mediated total cellular drug internalization at 5 uM after 12 hrs by LC-MS/MS analysis relative to irinotecan
# Type: ADME, cell-based
# MEASUREMENT_CONTEXT: a549, 12 h
Items are presented alongside their recorded fold change (FC).

Input line: fold change (FC) for `CCc1c2c(nc3ccc(O)cc13)-c1cc3c(c(=O)n1C2)COC(=O)[C@@]3(CC)OC(=O)CCNC(=O)c1noc(-c2cc(C(C)C)c(O)cc2O)c1-c1ccc(CN2CCOCC2)cc1` ?
Output line: 2.8 to 3.8

Input line: Next compound: `CCc1c2c(nc3ccc(OC(=O)N4CCC(NC(=O)c5noc(-c6cc(C(C)C)c(O)cc6O)c5-c5ccc(CN6CCOCC6)cc5)CC4)cc13)-c1cc3c(c(=O)n1C2)COC(=O)[C@]3(O)CC`
Output line: 2.8 to 3.8

Input line: Same lookup for `CCc1c2c(nc3ccc(O)cc13)-c1cc3c(c(=O)n1C2)COC(=O)[C@@]3(CC)OC(=O)CNC(=O)c1noc(-c2cc(C(C)C)c(O)cc2O)c1-c1ccc(CN2CCOCC2)cc1` , please.
Output line: 2.8 to 3.8

###

# TEST: Half life of compound in PBS buffer at pH 6.0 at 50 uM by HPLC analysis
# Format: physicochemical
ASSAY_READOUT: half-life at 50 µM

CCc1c2c(nc3ccc(OC(=O)N4CCC(NC(=O)CNc5cc(-n6nc(C(F)(F)F)c7c6CC(C)(C)CC7=O)ccc5C(N)=O)CC4)cc13)-c1cc3c(c(=O)n1C2)COC(=O)[C@]3(O)CC = > 24 h
CCc1c2c(nc3ccc(O)cc13)-c1cc3c(c(=O)n1C2)COC(=O)[C@@]3(CC)OC(=O)CCNC(=O)CNc1cc(-n2nc(C(F)(F)F)c3c2CC(C)(C)CC3=O)ccc1C(N)=O = > 24 h

Now look at this one.
Input line: Entry `CCc1c2c(nc3ccc(O)cc13)-c1cc3c(c(=O)n1C2)COC(=O)[C@@]3(CC)OC(=O)CNC(=O)c1noc(-c2cc(C(C)C)c(O)cc2O)c1-c1ccc(CN2CCOCC2)cc1` : reported half-life at 50 µM = ?
Output line: > 24 h

###

# TEST: Clearance in BALB/c mouse at 50 mg/kg, iv after 5 to 24 hrs by LC-MS/MS analysis
# Assay type: ADME, organism-based
# MEASUREMENT_CONTEXT: in vivo
Overview of recorded clearance for various compounds
Write the number in mL/min/kg without appending the unit.

CCc1c2c(nc3ccc(O)cc13)-c1cc3c(c(=O)n1C2)COC(=O)[C@@]3(CC)OC(=O)CCNC(=O)c1noc(-c2cc(C(C)C)c(O)cc2O)c1-c1ccc(CN2CCOCC2)cc1 = 5.51
CCc1c2c(nc3ccc(O)cc13)-c1cc3c(c(=O)n1C2)COC(=O)[C@@]3(CC)OC(=O)CNC(=O)c1noc(-c2cc(C(C)C)c(O)cc2O)c1-c1ccc(CN2CCOCC2)cc1 = 5.81

With those in mind, consider the next compound.
Input line: What clearance value was documented for this compound, `CCc1c2c(nc3ccc(OC(=O)N4CCC(NC(=O)c5noc(-c6cc(C(C)C)c(O)cc6O)c5-c5ccc(CN6CCOCC6)cc5)CC4)cc13)-c1cc3c(c(=O)n1C2)COC(=O)[C@]3(O)CC` ?
Output line: 6.91

###

# TEST: Drug uptake in human A549 cells assessed as endocytosis-mediated total cellular drug internalization at 5 uM after 12 hrs by LC-MS/MS analysis relative to SN38
# Format: ADME, cell-based
# MEASUREMENT_CONTEXT: a549, 12 h
ASSAY_READOUT: fold change (FC)

The cases that follow already have their fold change (FC) on record.
CCc1c2c(nc3ccc(O)cc13)-c1cc3c(c(=O)n1C2)COC(=O)[C@@]3(CC)OC(=O)CNC(=O)c1noc(-c2cc(C(C)C)c(O)cc2O)c1-c1ccc(CN2CCOCC2)cc1 = 1.6 to 1.9
CCc1c2c(nc3ccc(OC(=O)N4CCC(NC(=O)c5noc(-c6cc(C(C)C)c(O)cc6O)c5-c5ccc(CN6CCOCC6)cc5)CC4)cc13)-c1cc3c(c(=O)n1C2)COC(=O)[C@]3(O)CC = 1.6 to 1.9

Now consider a different molecule.
Input line: Could you tell me which fold change (FC) is on file for `CCc1c2c(nc3ccc(O)cc13)-c1cc3c(c(=O)n1C2)COC(=O)[C@@]3(CC)OC(=O)CCNC(=O)c1noc(-c2cc(C(C)C)c(O)cc2O)c1-c1ccc(CN2CCOCC2)cc1` ?
Output line: 1.6 to 1.9
